- Test system: K-562 leukemia
- Test method notes: NCI tumour cell line growth inhibition, 48 h
Recorded TGI values for a group of compounds are listed next.

Illustrative cases are given below, each with its answer.
O=C(Nc1cc(C(F)(F)F)ccc1F)Nc1n[nH]c2ccccc12; > 100 µM
CN1C(=O)CNC(=O)[C@H](NC(=O)c2nc3ccccc3cc2O)CSSC[C@H]1C(=O)NCCc1nc2ccccc2cc1O; 13.9 µM

Measured on K-562 leukemia, [Cu+2].[O-]c1ccc2ccccc2c1N=Nc1ccccc1.[O-]c1ccc2ccccc2c1N=Nc1ccccc1 has a documented TGI of > 100 µM

Measured on K-562 leukemia, COP(C)(=O)/C(Cc1ccccc1)=N\O (configuration not stated) has a documented TGI of > 100 µM

Measured on K-562 leukemia, CCOC(=O)/N=C(\N)SCc1ccccc1 has a documented TGI of > 100 µM

Measured on K-562 leukemia, Cc1cccc(Nc2cn(COCc3ccccc3)c(=O)[nH]c2=O)c1 has a documented TGI of > 100 µM

Measured on K-562 leukemia, O=C(O)CSCC(=O)Nc1ccc2cccc3c2c1CC3 has a documented TGI of > 100 µM

Measured on K-562 leukemia, Nc1cc(-c2ccccc2)ccc1O has a documented TGI of > 100 µM

Measured on K-562 leukemia, C=C1CC(CCCl)(c2ccccc2)OC1=O (configuration not stated) has a documented TGI of > 96.7 µM

Measured on K-562 leukemia, O=C1c2ccccc2C(=O)N1c1ccc(S(=O)(=O)Nc2ncccn2)cc1 has a documented TGI of > 100 µM

---

- System: U251 CNS
- Test method notes: NCI tumour cell line growth inhibition, 48 h
Assay endpoint: TGI

COc1ccc2c3c1OC1C(=O)C=CC4(O)C(C2)NCC[C@@]314 (stereo partly drawn); 7.15 µM
CCP(=O)(CC)C(Cl)(Cl)C(O)C(C)(C)C (stereo not drawn); > 100 µM
ClCCN(CCCl)c1ccc(-n2cnc3c(Cl)ncnc32)cc1; 9.1 µM
O=C(CSc1nc(=O)[nH]c2nc[nH]c12)Nc1ccccc1; > 100 µM
CC1(O)CC2C(CC1SCCO)C2(C)C (stereo not drawn); > 100 µM
CCSC1=N/C(=C\c2ccccc2O)C(Nc2ccc(C)cc2)=N1; > 100 µM

Looking up Brc1ccc([I+]c2ccc(Br)cc2)cc1 , I found its TGI recorded as 2.65 µM

Looking up Cn1c(=O)cc2c3c(c(NCCCO)ccc31)C(=O)c1ccccc1-2 , I found its TGI recorded as > 100 µM

---

- Tested on: NCI-H226 lung
- Test method notes: NCI tumour cell line growth inhibition, 48 h
Assay endpoint: GI50

CCCCC(=O)N/N=C/c1cc(I)cc(I)c1O; 5.93 µM
COc1cccc(/C=N\Nc2ccc([N+](=O)[O-])cn2)c1O; 3.72 µM
CN1CCN(c2ccc3c4c(cccc24)C(=O)N(CCN2CCN(CCCN4CCN(CCN5C(=O)c6cccc7c(N8CCN(C)CC8)ccc(c67)C5=O)CC4)CC2)C3=O)CC1; 6 µM

Continue with the next compound.
Looking up CC(C)=CCc1c(O)cc(/C=C/c2cc(O)c3c(c2)C[C@@H]2C(C)(C)[C@H](O)[C@H](O)C[C@@]2(C)O3)cc1O , I found its GI50 recorded as 1.99 µM

---

- System: HOP-92 NSCLC
- Test method notes: NCI tumour cell line growth inhibition, 48 h
Assay endpoint: TGI

Cc1ccc(C(=O)C(C)N)cc1 (stereo unspecified); > 100 µM
COC(=O)C1=Nc2c(C)nn(-c3ccccc3)c2N=C(c2ccc(C)cc2)C1; > 10 µM
COc1cccc2cc(C(N)=O)c(=N)oc12; > 100 µM
N#CCC(=O)Nn1c(CC#N)nnc1Cc1ccccc1; > 100 µM
O=C1C2C=CC1C1C(=O)OC(=O)C21 (stereo unspecified); > 100 µM
CN1C(c2ccccc2)=CC(=O)C(O)=C(c2ccccc2)S1(=O)=O; > 100 µM
CCc1n[nH]c(=O)n1N1C(=O)C2CC=CCC2C1=O (stereo unspecified); > 100 µM
Nc1nc(Cl)cc(NCC2(CO)CCC(Cc3ccccc3)C2)n1 (stereo unspecified); > 93.8 µM
Cc1cccc(Nc2cn(COCc3ccccc3)c(=O)[nH]c2=O)c1; > 100 µM
C1COC(NC(C2CC2)C2CC2)=N1; > 100 µM

Continue with the next compound.
Measured on HOP-92 NSCLC, c1ccc(C2SCC3=Nc4ccccc4CN32)cc1 (stereo unspecified) has a documented TGI of > 100 µM

---

- Tested on: DMS 273 small cell lung
- Test method notes: NCI tumour cell line growth inhibition, 48 h
Assay endpoint: TGI

Illustrative cases are given below, each with its answer.
Nc1ccc(Nc2nc(F)nc(-c3c4ccccc4c4n3CCS4)n2)cc1; 24 µM
N=C(c1ccccc1)N(O)C1CCCCC1; > 100 µM

Continue with the next compound.
Measured on DMS 273 small cell lung, O=C1C=C(Nc2ccccc2C(=O)CC(=O)C(=O)Nc2cccc(C(F)(F)F)c2)c2ccccc2C1=O has a documented TGI of > 94.4 µM

---

- Tested on: COLO 205 colon
- Test method notes: NCI tumour cell line growth inhibition, 48 h
Assay endpoint: TGI

Illustrative cases are given below, each with its answer.
CC(=O)Oc1ccc2c(c1)c1c(=O)oc(N(C)C)nc1n2Cc1ccccc1; > 100 µM
CC(ONC(=O)c1cc(C(F)(F)F)cc(C(F)(F)F)c1)C(=O)Nc1ccc(Cl)cc1 (stereo not drawn); 25.8 µM
CCC[C@H](N[C@@H]1CCc2cc(F)cc(F)c2C1)C(=O)Nc1cn(C(C)(C)CNCC(C)(C)C)cn1; 26.9 µM

Looking up CCc1n[nH]c(=O)n1N1C(=O)C2CC=CCC2C1=O (stereo not drawn) , I found its TGI recorded as > 100 µM

Looking up C=C1c2c(cc3c(c2O)c(=O)c2ccccc2n3C)OC1(C)C , I found its TGI recorded as > 100 µM

Looking up C(=C1c2ccccc2-c2ccccc21)c1ccccn1 , I found its TGI recorded as 29.5 µM

Looking up CCCCC(=O)N/N=C/c1cc(I)cc(I)c1O , I found its TGI recorded as 26.9 µM

Looking up CCCCCCCCCCCCCCCC(=O)OCC(O)C1OC(=O)C(O)=C1O (stereo not drawn) , I found its TGI recorded as > 100 µM

Looking up COc1ccc2c3c1OC1C(=O)C=CC4(O)C(C2)NCC[C@@]314 (stereo partly drawn) , I found its TGI recorded as 3.02 µM

Looking up COc1ccc(/C=C2\CSC/C(=C\c3ccc(OC)c(OC)c3OC)C2=O)c(OC)c1OC , I found its TGI recorded as > 100 µM

Looking up CC(C)(C)c1ccc([I+]c2ccc(C(C)(C)C)cc2)cc1 , I found its TGI recorded as 2.8 µM

Looking up N=C(N)SCCc1cn2ccccc2n1 , I found its TGI recorded as > 100 µM

Looking up COC(=O)NCCc1[nH]nc2c1C(=O)C=C(Nc1ccccc1)C2=O , I found its TGI recorded as 37.5 µM

Looking up O=C1CCCC/C1=C/C=C/c1ccccc1 , I found its TGI recorded as > 100 µM

---

- Test system: CAKI-1 renal
- Test method notes: NCI tumour cell line growth inhibition, 48 h
Assay endpoint: TGI

COc1ccc2c3c1C(=O)CCC3CO2 (configuration not stated); > 100 µM
O=C1Nc2ccccc2C1Cc1ccccc1 (configuration not stated); > 100 µM
OCCN(CCO)c1ccc2c(C(F)(F)F)cc(C(F)(F)F)nc2n1; > 100 µM
COc1cc2c(c(OC)c1OC)-c1[nH]ncc1CC2; > 100 µM
O=Cc1ccc(-c2ccc(-c3ccc(C=O)s3)o2)s1; 1.31 µM
O=c1cc(Cl)nc[nH]1; > 100 µM

Looking up COc1ccc2c(c1)CC[C@@H]1[C@@H]2CC[C@@]2(C)[C@H]1CC1(CCCCC1)[C@@H]2O , I found its TGI recorded as 33.9 µM

Looking up Nc1ccc(Nc2nc(F)nc(-c3c4ccccc4c4n3CCS4)n2)cc1 , I found its TGI recorded as 23.6 µM

Looking up Cn1c(COC(=O)N2CCCCC2)nc2c(N3CCOCC3)nc(-c3ccccc3)nc21 , I found its TGI recorded as 1.51 µM

Looking up CN(C)CCNc1ccc([N+](=O)[O-])c2nc3ccccc3c(N)c12 , I found its TGI recorded as > 10 µM

Looking up CC(C)OP(=O)(CN(C)/C(F)=N\C(F)(F)F)OC(C)C , I found its TGI recorded as > 100 µM

Looking up O=C(Nc1ccc(Br)cc1)Nc1n[nH]c2ccccc12 , I found its TGI recorded as > 100 µM

Looking up O=C(OCCOCBr)c1ccccc1 , I found its TGI recorded as > 100 µM

Looking up O=c1[nH]c(Br)nc2c(Br)c[nH]c12 , I found its TGI recorded as > 100 µM

Looking up Nc1cc(-c2ccccc2)ccc1O , I found its TGI recorded as 79.9 µM
